Values from paper PMC3137752

target: α6-100R-β3γ2 (α6β3γ2s) (Rattus norvegicus, UniProt P18508+P30191); test: radioligand association/dissociation kinetics, filtration
Sequence (P30191 20-453): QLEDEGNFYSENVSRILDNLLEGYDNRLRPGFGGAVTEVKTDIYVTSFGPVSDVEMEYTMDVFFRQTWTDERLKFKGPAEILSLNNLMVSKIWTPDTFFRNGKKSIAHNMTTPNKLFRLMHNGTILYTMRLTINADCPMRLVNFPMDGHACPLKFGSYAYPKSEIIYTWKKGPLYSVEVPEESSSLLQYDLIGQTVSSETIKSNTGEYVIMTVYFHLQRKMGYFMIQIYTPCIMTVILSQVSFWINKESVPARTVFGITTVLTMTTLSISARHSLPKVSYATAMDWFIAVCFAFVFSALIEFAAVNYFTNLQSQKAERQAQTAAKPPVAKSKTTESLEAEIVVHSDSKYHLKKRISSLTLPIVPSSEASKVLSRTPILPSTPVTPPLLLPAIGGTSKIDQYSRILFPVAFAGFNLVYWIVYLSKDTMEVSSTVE
Sequence (P18508 39-466): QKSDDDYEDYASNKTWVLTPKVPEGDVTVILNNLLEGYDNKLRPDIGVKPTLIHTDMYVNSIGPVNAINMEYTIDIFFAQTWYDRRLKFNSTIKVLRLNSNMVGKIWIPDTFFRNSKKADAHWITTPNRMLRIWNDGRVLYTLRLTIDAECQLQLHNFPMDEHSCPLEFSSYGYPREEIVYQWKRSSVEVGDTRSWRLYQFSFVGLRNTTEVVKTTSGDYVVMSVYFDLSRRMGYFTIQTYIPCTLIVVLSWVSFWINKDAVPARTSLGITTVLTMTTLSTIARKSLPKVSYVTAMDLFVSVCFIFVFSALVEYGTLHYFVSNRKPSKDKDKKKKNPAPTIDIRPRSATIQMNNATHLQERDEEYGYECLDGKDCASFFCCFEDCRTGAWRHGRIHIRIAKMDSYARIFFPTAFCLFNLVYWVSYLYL
Sequence (P63079 26-473 partner): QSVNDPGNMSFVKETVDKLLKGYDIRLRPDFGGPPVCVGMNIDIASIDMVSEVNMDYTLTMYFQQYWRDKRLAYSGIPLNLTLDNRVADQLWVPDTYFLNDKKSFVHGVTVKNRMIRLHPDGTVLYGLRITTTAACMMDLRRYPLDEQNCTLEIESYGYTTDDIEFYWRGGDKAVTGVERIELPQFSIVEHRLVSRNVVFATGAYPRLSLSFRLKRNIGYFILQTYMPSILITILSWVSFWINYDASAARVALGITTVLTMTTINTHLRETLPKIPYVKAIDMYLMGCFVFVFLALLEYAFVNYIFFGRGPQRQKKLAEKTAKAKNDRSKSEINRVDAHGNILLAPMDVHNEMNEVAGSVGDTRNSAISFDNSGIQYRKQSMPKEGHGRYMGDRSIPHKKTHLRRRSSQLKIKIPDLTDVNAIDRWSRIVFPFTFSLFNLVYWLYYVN
quantityMeasured: pKd
Answer as the number alone; pKd is minus log10 of concentration in mol/L.

Sample CCOC(=O)c1ncn2c1CN(C)C(=O)c1cc(N=[N+]=[N-])ccc1-2 [[^3H]Ro 15-4513] ; pKd observed: 8.62
